- measurement description: chemical genetic growth profiling, strain panel (AID 1159580);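 also: tested at 20 µM; growth read once vehicle control cultures reached saturation at 30 °C; 1 = growth at the plate median or of vehicle wells; lower values mean less growth of the strain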
- condition label: S. cerevisiae deletion strains, growth OD, locus YJL187C, strain SWE1, hits give low values
Hit rate of the full screen: of about 5,500 compounds, about 2,000 (36%) were called active. Not shown: some 18% with an inconclusive outcome. The list shows a part of the results.

molecule	normalized growth
O=C(N/N=C\c1ccccc1Cl)c1cccnc1	0.996
C=C1C2CC[C@@]3(C)[C@H](c4ccoc4)OC(=O)C[C@]13O[C@H]1CC(=O)C(C)(C)[C@H](C(O)C(=O)OC)[C@@]21C (some centres undefined)	1
COc1c2c(cc3c1OCO3)CC[N+](C)=C2	1.02
CC1(C)O[C@@H]2CC3C4C[C@H](F)C5=CC(=O)C=C[C@]5(C)[C@@]4(F)[C@@H](O)C[C@]3(C)[C@]2(C(=O)CO)O1 (some centres undefined)	1.01
C/C(=C\C(=O)OCCCCCCCCC(=O)O)C[C@@H]1OC[C@H](C[C@@H]2O[C@H]2[C@@H](C)[C@H](C)O)[C@@H](O)[C@H]1O	0.976
Cc1cc(C(F)(F)F)c(C#N)c(=O)[nH]1	1
Nc1ccc(C(=O)O)c(O)c1	0.999
COC(=O)C1=C(C)NC(C)=C(C(=O)OCCN(C)Cc2ccccc2)C1c1cccc([N+](=O)[O-])c1 (centres undefined)	0.993
COc1cccc2c1cc([N+](=O)[O-])c1c(C(=O)O)cc3c(c12)OCO3	1.02
NS(=O)(=O)c1cc2c(cc1C(F)(F)F)NCNS2(=O)=O	0.994
COc1cc2cc[n+]3cc4c(OC)c(OC)ccc4cc3c2cc1OC	0.988
CC(=O)Nc1ccc(OC(=O)c2ccccc2O)cc1	0.985
O=C1CCCc2c1nc(-c1ccccc1)n2O	1.02
C[N+]1(CCCCC[N+]2(C)CCCC2)CCCC1	1
O=c1cc(-c2ccc(O)cc2)oc2ccc(O)cc12	0.973
CC1=NCCc2c1[nH]c1cc(O)ccc21	0.989
COc1ccc2cc3[n+](cc2c1OC)CCc1cc2c(cc1-3)OCO2	0.989
Cc1onc(-c2c(Cl)cccc2Cl)c1C(=O)N1CCN(c2ncccc2C(F)(F)F)CC1	0.992
O=C(N/N=C\c1ccccc1Cl)N/N=C\c1ccccc1Cl	0.987
